Provenance of the data: PubChem BioAssay

Here the recorded superoxide response (% of plate) is given for each entry.
experiment: calorie-restriction mimetic ROS inhibitors, yeast – validation compound set, pilot screen (AID 2706);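 also: yeast exposed to compound for one week at 30 degrees C before staining; 100% = mean of all compound wells on the same plate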; conditions: S. cerevisiae aging, superoxide DHE fluorescence; at 10 µM; stronger effect = lower value
Activity calls are given as the source filed them.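 The calls were made as follows: active = superoxide response below 65% of plate, a cut near 3 SD across the whole screen; inactive = the rest.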
property: superoxide response (% of plate)

compound=O=C(NC(=S)Nc1nc(-c2ccccc2)cs1)c1ccco1 data_value="110% (inactive)"
compound="Cc1ccc2c(c1)C1(C(=O)N2)N2CCCC2C(C(=O)c2ccc3ccccc3c2)C12C(=O)Nc1ccccc12 (stereo unspecified)" data_value="94.8% (inactive)"
compound=CC(=O)OCC#CCSc1nc2ccccc2n1C data_value="95% (inactive)"
compound=C1COC(NC(C2CC2)C2CC2)=N1 data_value="96.6% (inactive)"
compound=Cc1ccc(C(=O)O)cc1NC(=O)c1cccs1 data_value="109% (inactive)"
compound=Cc1nonc1CN(C)C(=O)c1ccc(OC2CCN(Cc3ccccn3)CC2)cc1 data_value="95.8% (inactive)"

----------
Here the recorded superoxide response (% of plate) is given for each entry.
experiment: calorie-restriction mimetic ROS inhibitors, yeast – validation compound set, pilot screen (AID 2706);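 also: yeast exposed to compound for one week at 30 degrees C before staining; 100% = mean of all compound wells on the same plate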; settings: S. cerevisiae aging, superoxide DHE fluorescence; at 10 µM; stronger effect = lower value
property: superoxide response (% of plate) (%)

compound="Cc1nc(C2CC(=O)OC23CCCCC3)cs1 (stereo unspecified)" data_value=104
compound=Clc1ccc2c(c1)[C@H]1OCC[C@H]1[C@@H](c1ccco1)N2 data_value=103
compound=CC1(C)CC(=O)c2cn3c(nc2C1)nc1ccccc13 data_value=107
compound=Cc1cc(O)c2/c(=N\N)c(-c3csc(C)n3)coc2c1 data_value=102
compound=C[C@]12CC[C@@H]3c4ccc(O)cc4CC[C@H]3[C@@H]1CC[C@@H]2OC(=O)CCC(=O)O data_value=86
compound=COc1ccc(Cc2noc(CN(C)CCN3CCc4ccccc4C3)n2)cc1OC data_value=95
compound=O=c1[nH]cc(F)c(=O)[nH]1 data_value=100
compound=CCCn1c(=O)c2[nH]c(C3CCCC3)nc2n(CCC)c1=O data_value=93.3
compound="COc1ccccc1/C=C/CN1CCN(Cc2ccc(F)cc2)C(CCO)C1 (stereo unspecified)" data_value=92.6
compound=Cc1ccc(S(=O)(=O)NC(=O)Nc2cc(C)ccc2F)cc1 data_value=110
compound=C[C@@H]1C[C@H](Nc2ccccc2)c2ccccc2N1C(=O)c1cccnc1 data_value=95.6
compound=O=C(NC(=S)N1CCCCC1)c1cccnc1 data_value=89.9
compound="CC(C)C1CC(CCNCc2ccc(N(C)C)cc2)(c2ccccc2)CCO1 (stereo unspecified)" data_value=112
compound=Cc1cc(Cl)cc2c1NC(=O)[C@]21[C@@H]2C(=O)N(Cc3ccccc3)C(=O)[C@@H]2[C@@H]2CCCN21 data_value=95.7
compound="COc1ccc(OC(C)C(=O)Nc2ccc([N+](=O)[O-])cc2)cc1 (stereo unspecified)" data_value=103
compound=CC1(C)Oc2ccc(C#N)cc2[C@@H](N2CCCC2=O)[C@@H]1O data_value=93
compound=Cn1c(=O)[nH]c2nnc(-c3ccc(Cl)c(Cl)c3)nc2c1=O data_value=73.3
compound=CCN1/C(=C/C=C/C=C/c2sc3ccccc3[n+]2CC)Sc2ccccc21 data_value=89.6
compound="CC(C)OC(=O)C1C2C=CC3(CN(CC4CCCO4)C(=O)C13)O2 (stereo unspecified)" data_value=100
compound="CCNC(=O)C(Cc1ccccc1)NC(=O)OCc1ccccc1 (stereo unspecified)" data_value=112
compound=COC(=O)c1ccc(NC(=O)c2ccccc2SC)cc1 data_value=109

----------
Here the recorded GFP response vs DMSO is given for each entry.
assay: TOR pathway LAP4-GFP level changes – S. cerevisiae, multiplex flow cytometry, primary screen (AID 1873); conditions: S. cerevisiae LAP4-GFP expression, 3 h, at 10 µM, stronger effect = higher value
Records with an inconclusive call do not appear.
property: GFP response vs DMSO (%)

compound=COc1cc(CNc2ccc(C)c(C)c2)cc(OC)c1OC reading_unit=% data_value=113
compound=CCC(=O)Oc1ccc(C(=O)Nc2ccc([N+](=O)[O-])cc2)cc1 reading_unit=% data_value=82.5
compound=CCOC(=O)Cn1c(C)cc(=O)c2ccccc21 reading_unit=% data_value=117
compound="COc1ccc([C@H]2[C@H](C(=O)OC(C)(C)C)N3N=Cc4ccccc4C3C23C(=O)c2ccccc2C3=O)cc1OC (some centres not stated)" reading_unit=% data_value=97.4
compound=Cc1ccc(Cl)c(OCCCN(C)Cc2ccccc2)c1 reading_unit=% data_value=106
compound=CN1/C(=C\C=Nc2ccccc2)C(C)(C)c2ccccc21 reading_unit=% data_value=103
compound="COc1ccc2[nH]cc(C3N4CC5(C)CN3CC(C)(C4)C5=O)c2c1 (configuration not stated)" reading_unit=% data_value=103
compound=Cc1nc(N)sc1C(=O)N/N=C/c1ccco1 reading_unit=% data_value=114
compound="CCCCCCCCCC(=O)OCC(O)CO (configuration not stated)" reading_unit=% data_value=103
compound="CCOc1ccc(CC2CCC(=O)NC2=O)cc1 (configuration not stated)" reading_unit=% data_value=110
compound=O=C(NCc1ccc(N2CCCC2=O)cc1)c1cccc(Cl)c1 reading_unit=% data_value=105
compound=O=c1[nH]cnc2[nH]ncc12 reading_unit=% data_value=90.4

----------
Here the recorded GFP response relative to DMSO is given for each entry.
assay: yeast TOR pathway reporter LAP4-GFP change – cell-based, cherry picks, flow cytometry, mother/daughter gates, confirmation (AID 2271);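 also: ratio of sample to DMSO plate mean so 100% equals DMSO level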; conditions: S. cerevisiae LAP4-GFP strain, 3 h, measured here: mother cell gate response, at 10 µM, stronger effect = higher value, 100 means same as DMSO control
property: GFP response relative to DMSO (%)

compound=CCOc1cc(C=O)ccc1OCCSc1ccc(C)cc1 reading_unit=% data_value=137
compound=O=c1cc(-c2ccccc2)oc2cc(OCc3ccccc3)cc(O)c12 reading_unit=% data_value=99.3
compound="CC(C)(C)c1ccc(C(=O)CC(Sc2ccc(Cl)cc2)C(=O)O)cc1 (stereo unspecified)" reading_unit=% data_value=125
compound=COc1ccc(-c2noc(-c3ccccc3-c3ccccc3)n2)cc1 reading_unit=% data_value=97.3
compound=COc1ccc(C2=CC(=O)C=CC2=O)cc1 reading_unit=% data_value=122
compound=CC(=O)[C@H]1CC[C@H]2[C@@H]3CCC4=CC(=O)CC[C@]4(C)[C@H]3CC[C@]12C reading_unit=% data_value=101
compound=CN(c1ccccc1)c1ccc(/C=c2\s/c(=C(/C#N)C(=O)C(C)(C)C)n(Cc3ccco3)c2=O)cc1 reading_unit=% data_value=231
compound=C[C@]12CCC(=O)C=C1[C@H](O)C[C@@H]1[C@@H]2[C@@H](O)C[C@@]2(C)[C@H]1CC[C@]2(O)C(=O)CO reading_unit=% data_value=95.6
compound=O=C(C#Cc1ccccc1)c1cccc([N+](=O)[O-])c1 reading_unit=% data_value=183
compound=CCOC(=O)N1CCN(C(=O)CCc2ccc(S(=O)(=O)NCCc3ccccc3)cc2)CC1 reading_unit=% data_value=94.4
compound=O=C1c2ccccc2-c2onc3ccc(Oc4ccccc4)c1c23 reading_unit=% data_value=150
compound=CCCCN(CCCC)CCCOC(=O)c1ccc(N)cc1 reading_unit=% data_value=94
compound=CN(C)c1ccc(/C=C/C(=O)c2cccc(Br)c2)cc1 reading_unit=% data_value=102
compound=Nc1[nH]c(=O)ncc1F reading_unit=% data_value=111
compound=C[C@H]1C[C@@H]2[C@H]([C@@H](O)C[C@@]3(C)[C@H]2CC[C@]3(O)C(=O)CO)[C@@]2(C)C=CC(=O)C=C12 reading_unit=% data_value=99.3
compound="CS(=O)(=O)Nc1cccc(C(=O)CC2(O)C(=O)Nc3ccc(Br)cc32)c1 (stereo unspecified)" reading_unit=% data_value=96.2
compound=O=C1ON=C(c2ccc(Cl)cc2)/C1=C/c1ccc(O)cc1 reading_unit=% data_value=89
compound=O=c1cnn([C@@H]2O[C@H](CO)[C@@H](O)[C@H]2O)c(=O)[nH]1 reading_unit=% data_value=109
compound=C1COC(NC(C2CC2)C2CC2)=N1 reading_unit=% data_value=95.1
compound=CC(=O)OCC(=O)[C@@]1(O)CC[C@H]2[C@@H]3CCC4=CC(=O)CC[C@]4(C)[C@H]3[C@@H](O)C[C@@]21C reading_unit=% data_value=95.1
compound=CCN(CC)c1ccc2cc(-c3nc(-c4ccc(OC)cc4)cs3)c(=O)oc2c1 reading_unit=% data_value=135

----------
molecular target: GTPase HRas (Homo sapiens); experiment: Ras wt fluorescent GTP loading blockade – biochemical, wildtype, multiplex bead flow cytometry, dose response (AID 1335); conditions: bead-based flow cytometry, Bodipy-GTP binding to GST-Ras; at 100 µM (top of the series) unless noted
Class field: derived from GTP binding, percent of control; ranges lower level: < 70%; middle level: ≥ 70% and < 80%; upper level: ≥ 80%

molecule=O=C(Nc1cccc(-c2nnc(-c3ccco3)o2)c1)c1ccccc1 assigned_category="middle level"
molecule=COc1ccc2c(C)nc(N/C(N)=N/S(=O)(=O)c3ccc(C)cc3)nc2c1 assigned_category="upper level"
molecule=Cc1cc(C(F)F)n2nc(C(=O)Nc3ccc(S(=O)(=O)NC45CC6CC(CC(C6)C4)C5)cc3)nc2n1 assigned_category="upper level"
molecule="CC1CCCN(c2ccc3nc4ccccc4c(=O)n3n2)C1 (stereo unspecified)" assigned_category="middle level"
molecule=Cc1n[nH]c(=S)c2nn(-c3ccccc3)c(C)c12 assigned_category="lower level"
molecule=Cn1cc(C=C2C(=O)CC(C)(C)CC2=O)c2ccccc21 assigned_category="lower level"
molecule=NC(=S)N=Nc1c(O)[nH]c2ccc(F)cc12 assigned_category="lower level"
molecule=CCNC(=O)c1cc2c(=O)n3cccc(C)c3nc2n(CCc2ccccc2)c1=N assigned_category="upper level"
molecule=O=C(O)c1cc([N+](=O)[O-])ccc1NCc1ccccc1Cl assigned_category="upper level"
molecule=O=C(CCc1nc2ccccc2[nH]c1=O)OCC(=O)N1CCc2ccccc21 assigned_category="upper level"
molecule=COc1cccc(/C=N/Nc2nn3cnnc3c3ccccc23)c1 assigned_category="lower level"
molecule="CC1CN(C(=O)c2cccc(S(=O)(=O)Nc3cc(Cl)ccc3Cl)c2)CC(C)O1 (stereo unspecified)" assigned_category="lower level"
molecule=O=C(Nc1ccccc1F)c1ccccc1-c1ccccc1 assigned_category="lower level"
molecule=O=C(O)c1c(C(F)(F)F)ccnc1NCc1ccccc1 assigned_category="upper level"
molecule="Cc1ccccc1NC(=O)c1ccc(NC(=O)C2CC(=O)OC23CCCCC3)cc1 (stereo unspecified)" assigned_category="middle level"
molecule=COc1cc(NS(=O)(=O)c2ccc(Nc3nc(-c4ccccc4)cs3)cc2)nc(OC)n1 assigned_category="lower level"
molecule="CCOC(=O)c1c(CSc2ccccc2)n(C)c2cc(Br)c(OCC(O)CNC(CO)(CO)CO)cc12 (stereo unspecified)" assigned_category="upper level"
molecule=Cn1ncc(C(N)=O)c1NC(=S)NC(=O)c1ccc(Br)o1 assigned_category="middle level"
molecule=CCOCCCNc1nc(=S)[nH]c2cc(OC)c(OC)cc12 assigned_category="upper level"
molecule=Cc1nc2sccn2c1-c1nc(-c2cc3ccccc3o2)cs1 assigned_category="lower level"
molecule=C=CCn1c(COc2ccc(F)cc2)nnc1SCC(=O)c1c[nH]c2c(CC)cccc12 assigned_category="lower level"
molecule=O=S(=O)(Nc1cccc(-c2cn3cccnc3n2)c1)c1ccc(F)cc1 assigned_category="lower level"
molecule=O=C(O)c1cccnc1SCc1cccc(F)c1 assigned_category="upper level"
molecule=O=C(NCc1cccnc1)c1cccn2c(=O)c3sccc3nc12 assigned_category="middle level"
molecule=COc1ccc(C(=O)Nc2cc(Cl)ccc2C(=O)O)cc1 assigned_category="middle level"
molecule=COc1cc(/C=N/NC(=O)CN(Cc2ccccc2)S(=O)(=O)c2ccc3c(c2)OCCO3)ccc1O assigned_category="lower level"
molecule=Cc1ccc(/C=N/NC(=O)C2CCN(Cc3ccc(F)cc3Cl)CC2)o1 assigned_category="upper level"
molecule=O=C(O)c1ccc(COc2cccc3ccccc23)o1 assigned_category="upper level"
molecule=COC(=O)c1cn(CCOc2ccccc2)c2ccccc12 assigned_category="upper level"
molecule=O=C(O)c1cccc(NCc2ccccc2)c1 assigned_category="upper level"
molecule="COc1cc2[nH]c(=S)nc(NCC3CCCO3)c2cc1OC (stereo unspecified)" assigned_category="upper level"
molecule=Cc1ccc(OCCn2cnc3cc([N+](=O)[O-])ccc3c2=O)cc1 assigned_category="upper level"
molecule=Cc1cc(C)nc(Nc2nc(=O)c3ccccc3s2)n1 assigned_category="lower level"
molecule=O=C(Oc1c(Br)cc(C(=S)N2CCOCC2)cc1Br)c1ccc(Cl)cc1 assigned_category="upper level"
molecule=Cc1cccc(CNc2ncccc2C(=O)O)c1 assigned_category="upper level"
